Biological target: T1, cTnI quality control product recombinant protein (human, UniProt P19429 1-210, limits assumed)
T1 construct: the assay paragraphs only say cTnI; also called cardiac troponin I; cTnI antigen
T1 sequence (P19429 whole entry): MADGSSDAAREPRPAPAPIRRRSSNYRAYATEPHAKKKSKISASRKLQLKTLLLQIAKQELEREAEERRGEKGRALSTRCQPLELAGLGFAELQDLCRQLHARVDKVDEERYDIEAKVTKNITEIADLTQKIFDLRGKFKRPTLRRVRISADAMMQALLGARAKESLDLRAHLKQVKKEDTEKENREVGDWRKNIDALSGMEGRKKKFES
Assay: AMC biosensor, antibody on sensor
QUANTITY_KIND: log10(koff) (log10 of the value in s⁻¹)
Form field - Quantity: koff; Unit: s⁻¹; Scale: log10

Solved entries:
{"BINDER": "Anti-cTnI 7B9 monoclonal antibody (recombinant, Sample 1) (antibody, mouse IgG1, kappa, V domains shown, Recombinant mouse antibody expressed in CHO cells; also called WT; Anti-cTnI 7B9 antibody) VH: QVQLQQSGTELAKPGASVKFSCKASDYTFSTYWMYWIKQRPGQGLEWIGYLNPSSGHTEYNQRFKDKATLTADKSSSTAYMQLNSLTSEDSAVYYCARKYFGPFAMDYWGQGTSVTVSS VL: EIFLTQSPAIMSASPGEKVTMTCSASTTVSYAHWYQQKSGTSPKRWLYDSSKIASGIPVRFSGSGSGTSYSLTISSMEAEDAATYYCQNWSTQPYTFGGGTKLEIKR", "log10(koff)": -3.43}
{"BINDER": "Mutation 1-43 (antibody, V domains shown) VH: QVQLQQSGTELAKPGASVKFSCKASGYTFTSYWMYWIKQRPGQGLEWIGYINPSTGHTDYNQKFKDKATLTADKSSSTAYMQLNSLTSEDSAVYYCARKYFGPFGMDYWGQGTSVTVSS VL: EIFLTQSPAIMSASPGEKVTMTCSASTSVSYVHWYQQKSGTSPKRWIYDTSKLASGIPVRFSGSGSGTSYSLTISSMEAEDAATYYCQQWSTQPYTFGGGTKLEIKR", "log10(koff)": -3.43}
{"BINDER": "Mutation 1-37 (antibody, V domains shown) VH: QVQLQQSGTELAKPGASVKFSCKASGYTFSSYWMYWIKQRPGQGLEWIGYLNPSTGHTDYNQRFKDKATLTADKSSSTAYMQLNSLTSEDSAVYYCARKYFGPFGMDYWGQGTSVTVSS VL: EIFLTQSPAIMSASPGEKVTMTCSASTSVSYVHWYQQKSGTSPKRWIYDTSKLASGIPVRFSGSGSGTSYSLTISSMEAEDAATYYCQQWSTQPYTFGGGTKLEIKR", "log10(koff)": -3.57}
{"BINDER": "Mutation 1-6 (antibody, V domains shown) VH: QVQLQQSGTELAKPGASVKFSCKASGYTFTSYWMYWIKQRPGQGLEWIGYLNPSSGHTDYNQRFKDKATLTADKSSSTAYMQLNSLTSEDSAVYYCARRYFGPFGMDYWGQGTSVTVSS VL: EIFLTQSPAIMSASPGEKVTMTCSASSTVSYVHWYQQKSGTSPKRWLYDTSKLASGIPVRFSGSGSGTSYSLTISSMEAEDAATYYCQQWSTNPYTFGGGTKLEIKR", "log10(koff)": -4.22}
{"BINDER": "WT 1-2 (antibody, V domains shown) VH: QVQLQQSGTELAKPGASVKFSCKASDYTFTSYWMYWIKQRPGQGLEWIGYINPSSGHTEYNQRFKDKATLTADKSSSTAYMQLNSLTSEDSAVYYCARRYWGPFAMDYWGQGTSVTVSS VL: EIFLTQSPAIMSASPGEKVTMTCSASSTVSYAHWYQQKSGTSPKRWLYDSSKLASGIPVRFSGSGSGTSYSLTISSMEAEDAATYYCQNWSSQPYTFGGGTKLEIKR", "log10(koff)": -3.13}
{"BINDER": "Mutation 1-35 (antibody, V domains shown) VH: QVQLQQSGTELAKPGASVKFSCKASGYTFTTYWMYWIKQRPGQGLEWIGYINPSTGHTDYNQKFKDKATLTADKSSSTAYMQLNSLTSEDSAVYYCARRYWGPFGMDYWGQGTSVTVSS VL: EIFLTQSPAIMSASPGEKVTMTCSASSSVSYVHWYQQKSGTSPKRWIYDTSKLASGIPVRFSGSGSGTSYSLTISSMEAEDAATYYCQQWSTQPYTFGGGTKLEIKR", "log10(koff)": -4.31}

Continue with the binder presented below.
[in] Look up log10(koff) of Mutation 1-12 (antibody, V domains shown) VH: QVQLQQSGTELAKPGASVKFSCKASGYTFSTYWMYWIKQRPGQGLEWIGYLNPSTGHTDYNQRFKDKATLTADKSSSTAYMQLNSLTSEDSAVYYCARRYFGPFGMDYWGQGTSVTVSS VL: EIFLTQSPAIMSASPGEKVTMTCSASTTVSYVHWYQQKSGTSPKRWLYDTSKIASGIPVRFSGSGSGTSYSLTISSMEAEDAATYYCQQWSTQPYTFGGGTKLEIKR and report it.
[out] -4.16
